Literature IC50 values, system: MERTK (Homo sapiens, UniProt Q12866).

Before answering, review these 3 worked examples.
Cn1cc(-c2cnc(N)c(C(=O)N[C@@H]3CCN(C(=O)c4ccc(-c5ccc(Cl)s5)cc4)C3)c2)cn1 :: 10 to 100 nM
COC[C@H](C)Nc1ncc2c(O[C@H]3C[C@@H](O)C3(C)C)ncc([C@H]3CC[C@H](O)CC3)c2n1 :: ≤ 100 nM
CCOc1ccn(-c2ccc(F)cc2)c(=O)c1C(=O)Nc1ccc(Oc2ccnc3cc(OCCCN4CCOCC4)c4c(c23)OCCO4)c(F)c1 :: ≤ 50 nM

Lookup: Report measured IC50; entry is "Cn1cc(-c2cnc(N)c(C(=O)N[C@@H]3CCN(C(=O)c4ccc(-c5ccc(Cl)cc5)cc4)C3)c2)cn1"
Found: 100 to 1000 nM

====

pIC50: −log10 of the molar value.
Literature pIC50 values, system: MERTK (Homo sapiens).

CC(C)(O)c1ccc(-c2n[nH]c3ncc(-c4ccc5c(c4)CCN(C4CCCC4)CC5)cc23)c(F)c1 :: < 6.00
Cc1cc(-c2n[nH]c3ncc(-c4ccc5c(c4)CCN(C(=O)C(C)C)CC5)cc23)ccc1C(=O)N1CCNCC1 :: < 6.00
Cn1cc(-c2cnc(N)c(C(=O)N[C@@H]3CCN(C(=O)Oc4ccc(Oc5ccccc5)cc4)C3)c2)cn1 :: 6.00 to 7.00
C[C@@H](CF)Nc1ncc2c(OC3CCOCC3)ncc([C@H]3CC[C@H](O)CC3)c2n1 :: ≥ 7.00
Cn1cc(-c2cnc(N)c(C(=O)N[C@@H]3CCN(C(=O)c4ccc(C#N)cc4)C3)c2)cn1 :: < 6.00
Cn1cc(-c2cnc(N)c(C(=O)N[C@@H]3CCN(C(=O)c4ccc(-c5c(Cl)cccc5Cl)cc4)C3)c2)cn1 :: 6.00 to 7.00

Attention now shifts to the item below.
Lookup: Report measured pIC50; entry is [2H]C([2H])([2H])OCC(C)Nc1ncc2c(-c3cnn(C4COC4)c3)cc(C3CCC(O)CC3)n2n1 (stereo not shown)
Found: ≥ 7.00

====

pIC50: −log10 of the molar value.
Literature pIC50 values, system: MERTK (Homo sapiens).

COCCC(C)Nc1ncc2c(-c3ccc(CN4CCCC4)cc3)cc(C3CCC(O)CC3)n2n1 (centres unmarked) :: ≥ 7.00
CCc1cccc(Nc2ncc3c(OC4CCNCC4)ncc([C@H]4CC[C@H](O)CC4)c3n2)c1 :: ≥ 7.00
Cc1ncc([C@H]2CC[C@H](O)CC2)c2nc(N[C@@H](C)CC(F)(F)F)ncc12 :: ≥ 7.00
Cc1nn(-c2ccccc2)c(C)c1-c1ccc(C(=O)N2CC[C@@H](NC(=O)c3cc(-c4cnn(C)c4)cnc3N)C2)cc1 :: < 6.00
CCC[C@H](C)Nc1ncc2c(OC3CCNCC3)ncc([C@H]3CC[C@H](O)CC3)c2n1 :: ≥ 7.00
COc1cc2nccc(Oc3ccc(NC(=O)c4cn(CC5CC[S+]([O-])CC5)cc(-c5ccc(C)cc5)c4=O)nc3)c2cc1OC (centres unmarked) :: 7.14
CC(C)Nc1ncc2c(OC3CCOCC3)ncc(-c3cccc(S(=O)(=O)C(C)C)c3)c2n1 :: ≥ 7.00
COC[C@H](C)Nc1ncc2c(-c3cccc(CN4CC[C@@H](F)C4)c3)cc([C@H]3CC[C@H](O)CC3)n2n1 :: ≥ 7.00
Nc1ncc(-c2ccc(CO)cc2)cc1C(=O)N[C@@H]1CCN(C(=O)c2ccc(-c3ccccc3)cc2)C1 :: 6.00 to 7.00
COC[C@H](C)Nc1ncc2c(O[C@H]3C[C@@H](C(=O)N4CCN(C)CC4)C3)ncc([C@H]3CC[C@H](O)CC3)c2n1 :: ≥ 7.00

Hey, quick one: what's pIC50 for each of these?
1. Cn1cc(-c2cnc(N)c(C(=O)N[C@@H]3CCN(C(=O)c4c[nH]c5ccccc45)C3)c2)cn1
2. COc1cc(N2CCN(C)CC2)ccc1Nc1ncc2c(n1)n1c(cc3ccccc31)c(=O)n2C
3. CCc1cccc(-c2ccc(C(=O)N3CC[C@@H](NC(=O)c4cc(-c5cnn(C)c5)cnc4N)C3)cc2)c1
4. COC[C@H](C)Nc1ncc2c([C@@H]3CCCN(C(C)=O)C3)cc([C@H]3CC[C@H](O)CC3)n2n1

Found:
< 6.00
≤ 5.30
7.00 to 8.00
6.00 to 7.00

Hey, quick one: what's pIC50 for each of these?
1. COC[C@H](C)Nc1ncc2c(-c3ccnc(S(C)(=O)=O)c3)cc(C3CCC(O)CC3)n2n1 (some centres unmarked)
2. Cc1ccc(-c2cc([C@H]3CC[C@H](O)CC3)n3nc(N[C@@H](C)COC(F)F)ncc23)cn1
3. Cn1cc(-c2cnc(N)c(C(=O)N[C@@H]3CCN(C(=O)C=Cc4ccccc4)C3)c2)cn1
4. COc1cc2nccc(Oc3ncc(NC(=O)c4nn(C5CC5)cc(-c5ccc(F)cc5)c4=O)cn3)c2cc1OC
5. Cc1cc(C(=O)N2CC[C@@H](NC(=O)c3cc(-c4cnn(C)c4)cnc3N)C2)ccc1-c1cc(F)ccc1Cl
6. COC[C@H](C)Nc1ncc2c(-c3cnn(CC(=O)NC(C)C)c3)cc([C@H]3CC[C@H](O)CC3)n2n1

Found:
["≥ 7.00", "≥ 7.00", "< 6.00", "> 9.00", "7.00 to 8.00", "≥ 7.00"]

Hey, quick one: what's pIC50 for each of these?
1. N#Cc1ccc(Nc2ncc3c(OC4CCNCC4)ncc([C@H]4CC[C@H](O)CC4)c3n2)cc1
2. COC[C@H](C)Nc1ncc2c(O[C@H]3CCNCC3(F)F)ncc([C@H]3CC[C@H](O)CC3)c2n1
3. COC[C@H](C)Nc1ncc2c(-c3ccnc(N4CCOCC4)c3)cc([C@H]3CC[C@@](C)(O)CC3)n2n1
4. COc1ccccc1CC(=O)N1CC[C@@H](NC(=O)c2cc(-c3cnn(C)c3)cnc2N)C1
5. COC[C@H](C)Nc1ncc2c(-c3cnn(C(C)(C)C(=O)N4CCOCC4)c3)cc(C3CCc4[nH]ncc4C3)n2n1 (some centres unmarked)
6. Nc1ncc(-c2cnn(C3CCNCC3)c2)cc1C(=O)N[C@@H]1CCN(Cc2cc(F)c(F)cc2F)C1
7. CCCC(C)Nc1ncc2c(O[C@H]3CC[C@H](O)CC3)ncc([C@H]3CC[C@H](O)CC3)c2n1 (some centres unmarked)

Found:
["≥ 7.00", "6.00 to 7.00", "≥ 7.00", "< 6.00", "≥ 7.00", "< 6.00", "≥ 7.00"]

Hey, quick one: what's pIC50 for each of these?
1. CN1CCN(Cc2cccc(-c3cccc(CN4CC[C@@H](NC(=O)c5cc(-c6cnn(C)c6)cnc5N)C4)c3)c2)CC1
2. COc1cc2nccc(Oc3ccc(NC(=O)c4cn(C(C)C)cc(-c5ccc(F)cc5)c4=O)nc3)c2cc1OC

Found:
1: < 6.00; 2: 8.70
